# System: Escherichia coli
# METHOD: Antibacterial activity against Escherichia coli ATCC 25922 assessed as reduction in bacterial growth incubated for 24 hrs by CLSI broth microdilution method
# Type: functional
# PARTICULARS: Escherichia coli, ATCC 25922, 24 h, read-out: MIC
MEASUREMENT_NAME: MIC

STRUCTURE | OBSERVED
CCCOc1c2cc(C[N+](C)(C)C)cc1Cc1cc(C[N+](C)(C)C)cc(c1OCCC)Cc1cc(C[N+](C)(C)C)cc(c1OCCC)Cc1cc(C[N+](C)(C)C)cc(c1OCCC)C2.[Cl-].[Cl-].[Cl-].[Cl-] | 16 µg/mL
[H]/N=C(\N/C(=N/[H])NCCCCCCNC(=N)NC(=N)Nc1ccc(Cl)cc1)Nc1ccc(Cl)cc1 | 1 µg/mL
CCCOc1c2cc(C[n+]3ccn(C)c3)cc1Cc1cc(C[n+]3ccn(C)c3)cc(c1OCCC)Cc1cc(C[n+]3ccn(C)c3)cc(c1OCCC)Cc1cc(C[n+]3ccn(C)c3)cc(c1OCCC)C2.[Cl-].[Cl-].[Cl-].[Cl-] | ≤ 10 µg/mL
CCCOc1c2cc(C[N+](C)(C)CCN)cc1Cc1cc(C[N+](C)(C)CCN)cc(c1OCCC)Cc1cc(C[N+](C)(C)CCN)cc(c1OCCC)Cc1cc(C[N+](C)(C)CCN)cc(c1OCCC)C2.[Cl-].[Cl-].[Cl-].[Cl-] | 500 µg/mL
